experimental-system: Rap guanine nucleotide exchange factor 3 (Homo sapiens)
run-description: Counterscreen qHTS for agonist of cAMP-regulated guanine nucleotide exchange factor 3 (EPAC1) (AID 1645889); also: % of control where 0% means no effect; nearly all actives have a fitted effect of over 40% in size
condition-parameters: EPAC1 Rap1B-BODIPY-GDP exchange, fluorescence; series mostly up to 154 µM
Inconclusive results are not listed. The source made the active and inactive calls. Calls follow the shape of the dose curve; as a rule, active = well fitted activation curve with a large enough effect; inconclusive = small, poorly fitted or top-dose-only effect, or another doubt; inactive = no such curve, though single readings can be large or run the other way.
assay-readout: activation

Below, 9 compounds whose answers are already recorded.
* O=S(=O)(O)c1cc(O)c2cc(Nc3ccccc3)ccc2c1 | inactive
* CSc1ccccc1NC(=O)CN(c1ccccc1)S(=O)(=O)N(C)C | inactive
* COc1cc(/C=C2/SC(=S)N(c3c(C)n(C)n(-c4ccccc4)c3=O)C2=O)ccc1O | 11.7% [at 30.8 µM] (inactive)
* O=C(O)CN1C(=O)/C(=C\c2cc(Br)ccc2OCc2ccc([N+](=O)[O-])cc2)SC1=S | inactive
* COc1ccc(/C(N)=N/OC(=O)c2ccc(C)c([N+](=O)[O-])c2)cc1 | 16.7% [at 30.8 µM] (inactive)
* COC(=O)c1sc(-c2ccc(C(C)(C)C)cc2)cc1NC(=O)CSCC(=O)O | inactive
* Cc1ccc(NS(=O)(=O)c2cccs2)cc1S(=O)(=O)N1CCCCCC1 | inactive
* COc1ccc(S(=O)(=O)Nc2ccc3cn[nH]c3c2)cc1C | inactive
* CN(C)/C=C/c1onc(-c2c(Cl)cccc2Cl)c1C#N | inactive

Return the recorded activation value; entry: CC1(C)c2ccccc2N(CC(N)=O)C12C=Cc1ccccc1O2 (stereo not given) 10.1% [at 30.8 µM] (inactive)

* * *

experimental-system: Rap guanine nucleotide exchange factor 3 (Homo sapiens) (UniProt O95398)
Sequence (O95398 whole entry, looked up): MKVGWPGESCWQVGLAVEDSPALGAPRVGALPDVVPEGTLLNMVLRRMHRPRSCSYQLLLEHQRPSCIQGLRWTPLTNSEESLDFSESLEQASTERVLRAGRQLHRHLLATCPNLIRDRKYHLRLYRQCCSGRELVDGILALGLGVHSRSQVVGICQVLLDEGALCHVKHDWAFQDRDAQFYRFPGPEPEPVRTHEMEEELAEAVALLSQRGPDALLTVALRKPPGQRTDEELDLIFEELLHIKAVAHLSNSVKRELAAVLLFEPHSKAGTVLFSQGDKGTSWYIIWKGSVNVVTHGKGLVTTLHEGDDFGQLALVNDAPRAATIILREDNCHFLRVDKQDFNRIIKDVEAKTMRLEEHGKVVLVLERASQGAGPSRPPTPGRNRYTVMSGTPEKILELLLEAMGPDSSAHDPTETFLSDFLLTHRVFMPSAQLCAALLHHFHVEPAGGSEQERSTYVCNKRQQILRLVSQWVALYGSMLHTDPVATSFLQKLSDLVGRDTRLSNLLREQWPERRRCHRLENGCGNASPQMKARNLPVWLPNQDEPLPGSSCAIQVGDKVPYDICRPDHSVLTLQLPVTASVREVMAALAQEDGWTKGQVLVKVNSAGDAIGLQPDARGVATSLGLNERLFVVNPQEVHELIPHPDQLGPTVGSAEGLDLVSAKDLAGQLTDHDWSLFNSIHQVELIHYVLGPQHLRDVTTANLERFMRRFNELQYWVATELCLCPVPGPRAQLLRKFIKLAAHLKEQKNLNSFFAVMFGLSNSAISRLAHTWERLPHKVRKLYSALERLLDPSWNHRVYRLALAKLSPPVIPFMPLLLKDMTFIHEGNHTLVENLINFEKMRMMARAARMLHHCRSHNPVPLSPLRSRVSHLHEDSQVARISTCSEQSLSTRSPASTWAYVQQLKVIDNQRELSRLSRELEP
run-description: Counterscreen qHTS for antagonist of cAMP-regulated guanine nucleotide exchange factor 3 (EPAC1) (AID 1645888);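 also: fluorescence loss as bound BODIPY-GDP is released from Rap1B; % of control where 0% means no effect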
condition-parameters: Rap1B-BODIPY-GDP nucleotide exchange, fluorescence; series mostly up to 154 µM
Results filed as inconclusive are left out. The source made the active and inactive calls. Calls come from the whole dose curve; as a rule, active = well fitted inhibition curve with a large enough effect; inconclusive = small, poorly fitted or top-dose-only effect; inactive = no such curve, though single readings can be large or run the other way.
assay-readout: activity change, negative = inhibition

- Cc1c(C(=O)N2CCCC2)oc2ccc(Br)cc12: inactive
- COc1ccccc1C(=O)Oc1ccc2c(c1)O/C(=C\c1ccncc1)C2=O: inactive
- COC(=O)c1ccc2nc(-c3ccco3)c(Cc3cccc(F)c3)n2c1: inactive
- CN(C)C(=O)c1cccc(-c2cnc3c(NC=O)cc(-c4ccccc4Cl)cn23)c1: inactive
- Fc1ccc(Nc2cncc(-c3ccsc3)c2)cc1Cl: inactive

Parameters: items (list). Returns: activity change, negative = inhibition for each item.
1. COc1ccc(C2=CC(=O)OC3(CCCCC3)O2)cc1
2. COC(=O)c1cn(C(=O)c2ccc(OC)c(OC)c2)c2ccccc12
3. Cc1ccc(C(C)C)c(OCC(=O)NCC2(N3CCOCC3)CCCCC2)c1
4. CCN1CC=C2C(C#N)=C(N)C(C#N)(C#N)C(CCc3ccccc3)C2C1 (configuration not stated)
5. O=C(O)c1ccccc1NS(=O)(=O)c1ccc(NN=Cc2cccc(Cl)c2)c([N+](=O)[O-])c1
6. O=C(CSC1=NCCS1)N1N=C(c2cccs2)CC1c1ccc(F)cc1 (configuration not stated)
7. O=C(C(=Cc1ccc(O)cc1)c1ccccc1)c1ccccc1

-23.4% [at 30.8 µM] (inactive)
-11% [at 30.8 µM] (inactive)
inactive
inactive
inactive
4.6% [at 30.8 µM] (inactive)
inactive

Can you give me activity change, negative = inhibition for all of these, one by one?
1. Cc1ccc(C)c(Cn2nc(-c3cc(C)ccc3C)ccc2=O)c1
2. CCN1CCN(c2ccc(S(=O)(=O)N3CCCCC3)cc2NC(=O)c2ccc([N+](=O)[O-])s2)CC1
3. CCCCN(Cc1ccccc1)C(=O)c1oc(=O)c2ccccc2c1-c1ccc(C)cc1
4. O=C1C(=O)c2cccnc2-c2ncccc21
5. O=C(O)CCN1C(=O)/C(=C\c2cccc(OCC(=O)Nc3ccc(Cl)cc3)c2)SC1=S
6. Cc1cccc(C)c1OC(=O)c1ccccc1

1. inactive
2. inactive
3. inactive
4. inactive
5. inactive
6. 6.4% [at 30.8 µM] (inactive)

Okay, here is my list. What is activity change, negative = inhibition for each of these?
1. Cc1cc(CSc2ccc(Cl)cc2)ccc1N
2. Cc1ccc2nc3sc(C(=O)Nc4c(C)[nH]c(=O)[nH]c4=O)c(N)c3cc2c1
3. Clc1cccc(-c2nc3ccc(Cl)cn3c2Cc2ccsc2)c1
4. O=C(CSc1nc2ccsc2c(=O)n1CC1CCC(C(=O)O)CC1)c1ccc(Cl)cc1 (configuration not stated)

1: inactive; 2: 2.13% [at 30.8 µM] (inactive); 3: inactive; 4: inactive

* * *

run-description: Cell Viability - LYMP2-024 (AID 988);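 also: cells exposed to compound for 24 hr at 37 °C; plate controls were DMSO only for no effect and 92 µM tetraoctylammonium bromide for full effect; nearly all actives have a fitted effect of over 60% in size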
condition-parameters: LYMP2-024 lymphoblastoid cell viability; series mostly up to 92.2 µM
Inconclusive results are not listed. The source made the active and inactive calls. The call rests on the fitted dose curve; in most records, active means well fitted cell-killing curve with a large enough effect; inconclusive means small, poorly fitted or top-dose-only effect; inactive means flat fitted curve, though single readings scatter.
In this exercise, the only acceptable responses are yes = active, no = inactive

- CCCCCCCCCCCC(=O)O: no
- COc1c2ccoc2cc2oc(=O)ccc12: no

Called result for `c1ccccc1` no

Record lookup: outcome of this test for O=C(O)CC(C(=O)O)C(CC(=O)O)C(=O)O (stereo unspecified) ? no

// param item: `CCCN(CCC)C(=O)SCC` ; yields the recorded call no

Would you mind telling me which call this test gave CC1(C)CC(N=C=O)CC(C)(CN=C=O)C1 (stereo unspecified) ? no

Hey, what did the test say about `c1ccc2c(c1)c1cccc3ccc4cccc2c4c31` ? no

Answer briefly: the call reported for `Cc1ccccc1C` in this assay. no

Given `O=C(/C=C/c1ccc(O)c(O)c1)O[C@@H](C(=O)O)[C@@H](OC(=O)/C=C/c1ccc(O)c(O)c1)C(=O)O` , state the outcome it received in this test. no

Called result for CCCCC(CC)CN (stereo unspecified) no

* * *

experimental-system: Phospholipid hydroperoxide glutathione peroxidase GPX4 (Homo sapiens)
run-description: Primary qHTS Assay for Inhibitors of Recombinant Selenoprotein Glutathione Peroxidase 4 (GPX4) (AID 1845192); also: nearly all actives have a fitted effect of over 65% in size
condition-parameters: recombinant GPX4, GR-coupled NADPH fluorescence, 15 min; series mostly up to 50 µM
Results filed as inconclusive are left out. Active and inactive are the calls of the source. Calls follow the shape of the dose curve; as a rule, active = well fitted inhibition curve with a large enough effect; inconclusive = small, poorly fitted or top-dose-only effect; inactive = flat fitted curve, though single readings scatter.
Pick from active, inactive when you respond.

Worked set:
• Cc1oc(-c2ccccc2)nc1CCOc1ccc(CC2C(=O)NOC2=O)cc1 (stereo not drawn) = active
• CCCCCCCCCC(=O)OC1(c2ccc(Cl)cc2)CCN(CCCC(=O)c2ccc(F)cc2)CC1 = inactive
• CC=CC1=C(C(=O)O)N2C(=O)[C@@H](NC(=O)[C@H](N)c3ccc(O)cc3)[C@H]2SC1 = inactive
• Cn1nnnc1SCC1=C(C(=O)O)N2C(=O)[C@H](NC(=O)C(O)c3ccccc3)C2SC1 (stereo partly drawn) = active

// return assay outcome for CCCCCCCCCCCCCCCC(=O)OC1C(SC)OC(C(NC(=O)C2CC(CCC)CN2C)C(C)Cl)C(O)C1O (stereo not drawn) inactive

Per the assay record, what outcome was assigned to `CCCCCCCC/C=C/CCCCCCCC(=O)O` ? active

Kindly provide the recorded test outcome for the following molecule: CC(=O)OC1CC(OC2C(O)CC(OC3C(O)CC(OC4CCC5(C)C(CCC6C5CCC5(C)C(C7=CC(=O)OC7)CCC65O)C4)OC3C)OC2C)OC(C)C1O (stereo not drawn) inactive

Returns: the outcome recorded for `COC(=O)N[C@H](C(=O)N1CC2(CC2)C[C@H]1c1ncc(-c2ccc3c(c2)C(F)(F)c2cc(-c4ccc5nc([C@@H]6[C@H]7CC[C@H](C7)N6C(=O)[C@@H](NC(=O)OC)C(C)C)[nH]c5c4)ccc2-3)[nH]1)C(C)C` in this assay. active

* * *

run-description: Cell Viability - LYMP2-002 (AID 977);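 also: compound exposure lasted 24 h at 37 °C; plate controls were DMSO only for no effect and 92 µM tetraoctylammonium bromide for full effect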
condition-parameters: LYMP2-002 lymphoblastoid cell viability, qHTS; series mostly up to 92.2 µM
Records with an inconclusive call do not appear. Active and inactive are the calls of the source. The call rests on the fitted dose curve; in most records, active means well fitted cell-killing curve with a large enough effect; inconclusive means small, poorly fitted or top-dose-only effect; inactive means flat fitted curve, though single readings scatter.
assay-readout: outcome

Some entries whose results are on file:
- OCCNCCO: inactive
- O=C(O)CC(C(=O)O)C(CC(=O)O)C(=O)O (stereo unspecified): inactive
- CCO[Si](CCCN)(OCC)OCC: inactive
- CC1(C)CC(N=C=O)CC(C)(CN=C=O)C1 (stereo unspecified): inactive

Report outcome for every entry below.
1. CCCCCCCCO
2. c1ccc2scnc2c1

1: inactive; 2: inactive

* * *

experimental-system: Rap guanine nucleotide exchange factor 3 (Homo sapiens)
run-description: Confirmatory qHTS for agonist of cAMP-regulated guanine nucleotide exchange factor 3 (EPAC1) (AID 1645881);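 also: EPAC1 catalysed release of BODIPY-GDP from Rap1B seen as fluorescence loss; 100% = effect of cAMP agonist control; nearly all actives have a fitted effect of over 75% in size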
condition-parameters: EPAC1 Rap1B BODIPY-GDP exchange fluorescence; series mostly up to 154 µM
Records with an inconclusive call do not appear. Active and inactive are the calls of the source. The call rests on the fitted dose curve; in most records, active means well fitted activation curve with a large enough effect; inconclusive means small, poorly fitted or top-dose-only effect; inactive means no such curve, though single readings can be large or run the other way.
assay-readout: outcome

Worked examples follow.
• CCCN(CC(=O)Nc1ccccc1C)C(=O)C1CCN(c2ncnc3sc(C)c(C)c23)CC1 = inactive
• CCCn1cc(SCC(=O)NCc2ccc3c(c2)OCO3)c2ccccc21 = inactive
• Cn1cc(C(=O)C(=O)N2CCCCC2)c2ccccc21 = inactive
• COc1ccc2c(c1)OCC(Cc1ccc(OC)c(OC)c1)C2=O (stereo unspecified) = inactive
• COc1ccc(CCn2c(=N)c(C(=O)NC3CCCCC3)cc3c(=O)n4ccccc4nc32)cc1 = inactive
• O=c1cc2oc3cc(O)c(O)cc3c(-c3ccccc3[N+](=O)[O-])c-2cc1O = inactive

Provide outcome values for the following items, in order.
1. CCOC(=O)C1CCc2c(ccc3ccccc23)N1CCC#N (stereo unspecified)
2. COc1ccc(N2C(=O)CSC2c2ccccc2F)c(OC)c1 (stereo unspecified)
3. Cc1ccc2c(c1)N(Cc1cccc(Cl)c1)C(=O)c1cccnc1O2

1. inactive
2. inactive
3. inactive

// data source = PubChem BioAssay (NCATS)
